test-settings: buffer; pH 7.4; 200.0 µM
property-measured: solubility kinetic

Guide cases for solubility kinetic, answers given:
# molecule, recorded-measurement
rows = [
    ("CCc1c(C)sc(NC(=S)Nc2cccnc2)c1C(=O)OC", "> 50.3 µg/mL"),
    ("Cc1cccc(C(=O)OC(C)CN2C(C)CCCC2C)c1.Cl (stereo unspecified)", "> 48.9 µg/mL"),
    ("CC(=O)c1ccc(NC(=O)CN2C(=O)NC3(CCCc4ccccc43)C2=O)cc1 (stereo unspecified)", "> 58.7 µg/mL"),
    ("Cc1cccc(NC(=O)Nc2ccc(Cl)cc2)n1", "< 0.2 µg/mL"),
    ("O=C(/C=C/c1ccccc1)Nc1ccc(NC(=O)c2cccs2)cc1", "< 0.4 µg/mL"),
]

What solubility kinetic value was documented for this molecule, `COc1ccc(/C=C/C(=O)O)cc1S(=O)(=O)N1CCc2ccccc21` ?
> 53.9 µg/mL

Which solubility kinetic is listed for `Cc1ccc(S(=O)(=O)NC2=NCN(CC(=O)[O-])CN2)cc1.[Na+]` ?
> 50.1 µg/mL

Give its solubility kinetic value. Item: `CN1CCC(N(C)C(=O)c2cccc(S(=O)(=O)N3CCc4ccccc43)c2)CC1`
> 62 µg/mL
